The measurements presented in this section are drawn from PubChem BioAssay AID248.

Consider the following compounds; for each one, report its T/C.
- Test system: L1210 leukemia ip in BDF1 mice, survival T/C
- assay comment: NCI In Vivo Anticancer Drug Screen. Data for tumor model L1210 Leukemia (intraperitoneal) in B6D2F1 (BDF1) mice
- run parameters: endpoint: mean survival time; dose: 200.0 mg/kg/injection; schedule: Q01DX001 (ip); vehicle: carboxymethylcellulose (CMC); higher = longer survival
Toxic doses and inconclusive results are not listed.

# compound, assay target, T/C
data = [
    ("O=c1c(O)c(-c2ccccc2)oc2ccccc12", "L1210 leukemia ip in BDF1 mice, survival T/C", "97 % of control"),
    ("C=CCOc1ccccc1OCC=C", "L1210 leukemia ip in BDF1 mice, survival T/C", "102 % of control"),
]

Dear colleague, could you please provide T/C for the compounds listed below?
1. Nc1c(F)c(F)c(N=Nc2ccccc2)c(F)c1F
2. COc1ccc(CC(=O)NCCc2ccccc2)cc1

96 % of control
98 % of control
